This section presents compounds with their documented Decrease in systolic blood pressure (mmHg) time after administration (hour) 0.5 values.
# Test system: male spontaneously hypertensive rats
# test: Decrease in systolic blood pressure in spontaneously hypertensive rats after intravenous bolus injection, indirect (tail-cuff) method
# Format: in vivo, rat
# stated.conditions: dose 10 mg/kg i.v. bolus, 0.5 hour after administration
Give just the numeric value; mmHg need not be written.

Examples with their reported Decrease in systolic blood pressure (mmHg) time after administration (hour) 0.5 follow.
| compound | system | val |
| --- | --- | --- |
| CCC(C#N)(CCCN1CCC(=C2c3ccccc3C=Cc3ccccc32)CC1)c1cccc(C(F)(F)F)c1.Cl (stereo not shown) | male spontaneously hypertensive rats | −116 |
| C1=Cc2ccccc2C(=C2CCN(Cc3cccc4ccccc34)CC2)c2ccccc21.Cl | male spontaneously hypertensive rats | −126 |

Q. State, in one line, measured Decrease in systolic blood pressure (mmHg) time after administration (hour) 0.5 of Cl.N#CC(CCCCl)(CCCN1CCC(=C2c3ccccc3C=Cc3ccccc32)CC1)c1ccccc1 (stereo not shown)
A. −23

Q. State, in one line, measured Decrease in systolic blood pressure (mmHg) time after administration (hour) 0.5 of O=C(c1cccc2ccccc12)N1CCC(=C2c3ccccc3C=Cc3ccccc32)CC1
A. −82

meta.source: patent USRE38257E1
